Tested on: BT-474
Assay: normalised viability (% of control), CellTiter-Blue; higher = more viable cells (about 100 = DMSO control)
Conditions: 1000 nM; incubation time: 72 h
reportedEndpoint: normalised viability (%)

INSERT INTO measurements (compound, valueunit, measurement) VALUES
  ('CC(C)C[C@H](NC(=O)[C@H](CCc1ccccc1)NC(=O)CN1CCOCC1)C(=O)N[C@@H](Cc1ccccc1)C(=O)N[C@@H](CC(C)C)C(=O)[C@@]1(C)CO1 [Carfilzomib]', '%', 13.9),
  ('C[C@]12C=CC(=O)C=C1CC[C@@H]1[C@@H]2C(=O)C[C@@]2(C)[C@H]1CC[C@]2(O)C(=O)CO [Prednisone]', '%', 109),
  ('CO[C@H]1C[C@@H]2CC[C@@H](C)[C@@](O)(O2)C(=O)C(=O)N2CCCC[C@H]2C(=O)O[C@H]([C@H](C)C[C@@H]2CC[C@@H](O)[C@H](OC)C2)CC(=O)[C@H](C)/C=C(\C)[C@@H](O)[C@@H](OC)C(=O)[C@H](C)C[C@H](C)/C=C/C=C/C=C/1C [Sirolimus]', '%', 67.5);

###

Test system: CAL-120
Assay: normalised response (% of control), CellTiter-Glo; higher = more viable cells (100 = DMSO, 0 = benzethonium chloride kill control)
Details: incubation time: 72 h
Recorded normalised response for the following compounds
reportedEndpoint: normalised response (%)

INSERT INTO assay_data (compound, valueunit, measurement) VALUES
  ('COc1cc2c(N3CCN(C(=O)Nc4ccc(OC(C)C)cc4)CC3)ncnc2cc1OCCCN1CCCCC1 [Tandutinib] (1000 nM)', '%', 106),
  ('CCc1c(C(=O)C(N)=O)c2c(OCC(=O)O)cccc2n1Cc1ccccc1 [Varespladib] (10000 nM)', '%', 115),
  ('COc1cc2c(cc1-c1c(C)noc1C)ncc1[nH]c(=O)n([C@H](C)c3ccccn3)c12 [I-BET151] (10000 nM)', '%', 64),
  ('CC(C)C(=O)Nc1ccc([N+](=O)[O-])c(C(F)(F)F)c1 [Flutamide] (10000 nM)', '%', 104),
  ('CCCc1cc(C)[nH]c(=O)c1CNC(=O)c1cc(-c2ccnc(N3CCN(C)CC3)c2)cc2c1cnn2C(C)C [GSK343] (10000 nM)', '%', 79.4),
  ('NC1(c2ccc(-c3nc4ccn5c(=O)[nH]nc5c4cc3-c3ccccc3)cc2)CCC1 [MK-2206] (1000 nM)', '%', 92.5),
  ('Cn1cc(C[C@@H](N)C(=O)O)c2ccccc21 [1-methyl-D-tryptophan] (5000 nM)', '%', 101),
  ('Cn1nnc2c(C(N)=O)ncn2c1=O [Temozolomide] (10000 nM)', '%', 95.2);

###

Test system: CAL-51
Assay: drug sensitivity score (DSS), CellTox Green (DSS (AUC-based score)); higher = stronger drug effect (viability inhibition or cytotoxicity); extreme values may be limits of the assay
Conditions: incubation time: 72 h
reportedEndpoint: drug sensitivity score

INSERT INTO measurements (compound, measurement) VALUES
  ('C[C@]12C=CC(=O)C=C1CC[C@@H]1[C@@H]2C(=O)C[C@@]2(C)[C@H]1CC[C@]2(O)C(=O)CO', 0),
  ('COc1cc2c(cc1-c1c(C)noc1C)ncc1[nH]c(=O)n([C@H](C)c3ccccn3)c12', 4.63),
  ('NC(=O)NO [Hydroxyurea]', 8.77),
  ('Nc1nc(Cl)nc2c1ncn2[C@@H]1O[C@H](CO)[C@@H](O)[C@@H]1F', 16.7),
  ('O=C(c1cc(Cc2n[nH]c(=O)c3ccccc23)ccc1F)N1CCN(C(=O)C2CC2)CC1', 3.38),
  ('Cn1cc(C[C@@H](N)C(=O)O)c2ccccc21', 0),
  ('CO[C@H]1C[C@@H]2CC[C@@H](C)[C@@](O)(O2)C(=O)C(=O)N2CCCC[C@H]2C(=O)O[C@H]([C@H](C)C[C@@H]2CC[C@@H](O)[C@H](OC)C2)CC(=O)[C@H](C)/C=C(\C)[C@@H](O)[C@@H](OC)C(=O)[C@H](C)C[C@H](C)/C=C/C=C/C=C/1C', 0),
  ('CN1CCc2c(c3ccccc3n2Cc2ccc(C(=O)NO)cc2)C1', 7.48),
  ('CC(C)C[C@H](NC(=O)[C@H](CCc1ccccc1)NC(=O)CN1CCOCC1)C(=O)N[C@@H](Cc1ccccc1)C(=O)N[C@@H](CC(C)C)C(=O)[C@@]1(C)CO1', 24.4),
  ('CCCc1cc(C)[nH]c(=O)c1CNC(=O)c1cc(-c2ccnc(N3CCN(C)CC3)c2)cc2c1cnn2C(C)C', 0);

###

Recorded normalised response for the following compounds
Test system: MCF-10A
Test: normalised response (% of control), CellTiter-Glo; higher = more viable cells (100 = DMSO, 0 = benzethonium chloride kill control)
Details: incubation time: 72 h
reportedEndpoint: normalised response (%)

INSERT INTO results (compound, reportedendpoint, valueunit, measurement) VALUES
  ('CCN(CC)CCOc1ccc(C(=C(Cl)c2ccccc2)c2ccccc2)cc1 [Clomifene] (100 nM)', 'normalised response', '%', 95.2),
  ('O=C(c1cc(Cc2n[nH]c(=O)c3ccccc23)ccc1F)N1CCN(C(=O)C2CC2)CC1 [Olaparib] (100 nM)', 'normalised response', '%', 101),
  ('Cc1c(N)nc([C@H](CC(N)=O)NC[C@H](N)C(N)=O)nc1C(=O)N[C@H](C(=O)N[C@H](C)[C@@H](O)[C@H](C)C(=O)N[C@H](C(=O)NCCc1nc(-c2nc(C(=O)NCCC[S+](C)C)cs2)cs1)[C@@H](C)O)[C@@H](OC1OC(CO)C(O)C(O)C1OC1OC(CO)C(O)C(OC(N)=O)C1O)c1cnc[nH]1 (stereo partly drawn) [Bleomycin] (100 nM)', 'normalised response', '%', 90.6),
  ('CCCCCOC(=O)Nc1nc(=O)n([C@@H]2O[C@H](C)[C@@H](O)[C@H]2O)cc1F [Capecitabine] (100 nM)', 'normalised response', '%', 95.5),
  ('CC(C)NC[C@@H](C(=O)N1CCN(c2ncnc3c2[C@H](C)C[C@H]3O)CC1)c1ccc(Cl)cc1 [GDC-0068] (100 nM)', 'normalised response', '%', 111),
  ('COc1cc2c(N3CCN(C(=O)Nc4ccc(OC(C)C)cc4)CC3)ncnc2cc1OCCCN1CCCCC1 [Tandutinib] (10 nM)', 'normalised response', '%', 97.8),
  ('CC/C(=C(\c1ccccc1)c1ccc(OCCN(C)C)cc1)c1ccccc1 [Tamoxifen] (100 nM)', 'normalised response', '%', 107),
  ('NC(=O)c1cccc2cn(-c3ccc([C@@H]4CCCNC4)cc3)nc12 [MK-4827] (100 nM)', 'normalised response', '%', 110);

###

System: BT-474
Assay: drug sensitivity score (DSS), CellTiter-Glo (DSS (AUC-based score)); higher = stronger drug effect (viability inhibition or cytotoxicity); extreme values may be limits of the assay
Settings: incubation time: 72 h
reportedEndpoint: drug sensitivity score

INSERT INTO results (linenotation, reportedendpoint, measurement) VALUES
  ('CCCCCOC(=O)Nc1nc(=O)n([C@@H]2O[C@H](C)[C@@H](O)[C@H]2O)cc1F', 'drug sensitivity score', 0),
  ('CCCc1cc(C)[nH]c(=O)c1CNC(=O)c1cc(-c2ccnc(N3CCN(C)CC3)c2)cc2c1cnn2C(C)C', 'drug sensitivity score', 3.79),
  ('O=NN(CCCl)C(=O)NC1CCCCC1', 'drug sensitivity score', 0),
  ('Cc1cc2c(F)c(Oc3ncnn4cc(OC[C@@H](C)O)c(C)c34)ccc2[nH]1', 'drug sensitivity score', 0),
  ('CC(C)NC[C@@H](C(=O)N1CCN(c2ncnc3c2[C@H](C)C[C@H]3O)CC1)c1ccc(Cl)cc1', 'drug sensitivity score', 0.706),
  ('Nc1nc(Cl)nc2c1ncn2[C@@H]1O[C@H](CO)[C@@H](O)[C@@H]1F', 'drug sensitivity score', 5.27),
  ('Cc1c(C(=O)Nc2ccc(N3C[C@@H](C)O[C@@H](C)C3)nc2)cccc1-c1ccc(OC(F)(F)F)cc1', 'drug sensitivity score', 3.21),
  ('C[C@]12C=CC(=O)C=C1CC[C@@H]1[C@@H]2C(=O)C[C@@]2(C)[C@H]1CC[C@]2(O)C(=O)CO', 'drug sensitivity score', 0);

###

Recorded normalised viability for the following compounds
System: CAL-148
Test: normalised viability (% of control), CellTiter-Blue; higher = more viable cells (about 100 = DMSO control)
Conditions: 30 nM; incubation time: 72 h
reportedEndpoint: normalised viability (%)

INSERT INTO results (compound, measurement) VALUES
  ('Cn1nnc2c(C(N)=O)ncn2c1=O [Temozolomide]', 88.8),
  ('Cc1c(N)nc([C@H](CC(N)=O)NC[C@H](N)C(N)=O)nc1C(=O)N[C@H](C(=O)N[C@H](C)[C@@H](O)[C@H](C)C(=O)N[C@H](C(=O)NCCc1nc(-c2nc(C(=O)NCCC[S+](C)C)cs2)cs1)[C@@H](C)O)[C@@H](OC1OC(CO)C(O)C(O)C1OC1OC(CO)C(O)C(OC(N)=O)C1O)c1cnc[nH]1 (stereo not given in full)', 82.5),
  ('C[C@@H]1C[C@H]2[C@@H]3CCC4=CC(=O)C=C[C@]4(C)[C@@]3(F)[C@@H](O)C[C@]2(C)[C@@]1(O)C(=O)CO', 108),
  ('Cc1c(C(=O)Nc2ccc(N3C[C@@H](C)O[C@@H](C)C3)nc2)cccc1-c1ccc(OC(F)(F)F)cc1', 101),
  ('C[C@@H](C(=O)O)c1ccc(-c2ccccc2)c(F)c1', 96.6);

Reference source: the supplement of paper PMC4862054
